# ASSAYED SYSTEM: T1, human DLL3 on SHP-77 cells (human, UniProt Q9NYJ7 27-618)
# T1 construct: also called DLL3-expressing cells (SHP-77)
# T1 sequence: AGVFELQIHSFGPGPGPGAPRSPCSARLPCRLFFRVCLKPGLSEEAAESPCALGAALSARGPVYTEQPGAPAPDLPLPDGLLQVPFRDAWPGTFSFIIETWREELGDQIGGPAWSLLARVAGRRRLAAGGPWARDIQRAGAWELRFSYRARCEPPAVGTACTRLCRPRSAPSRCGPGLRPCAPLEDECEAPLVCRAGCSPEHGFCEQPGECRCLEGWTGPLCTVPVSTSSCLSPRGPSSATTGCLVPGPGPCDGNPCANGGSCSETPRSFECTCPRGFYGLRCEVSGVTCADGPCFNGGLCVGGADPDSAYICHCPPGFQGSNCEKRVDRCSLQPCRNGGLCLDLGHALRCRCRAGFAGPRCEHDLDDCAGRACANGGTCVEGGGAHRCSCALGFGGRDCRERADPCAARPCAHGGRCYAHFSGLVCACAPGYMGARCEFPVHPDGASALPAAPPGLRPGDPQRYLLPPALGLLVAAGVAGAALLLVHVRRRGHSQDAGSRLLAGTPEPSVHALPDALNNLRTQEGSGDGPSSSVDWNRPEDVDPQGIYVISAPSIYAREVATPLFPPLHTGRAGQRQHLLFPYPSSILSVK
# ASSAY INFO: flow cytometry, SHP-77 cells
REPORTED METRIC: pEC50
Scale: pEC50 equals -log10([C]), with [C] in mol/L.

>>> test_result("H2-39E2D11 mouse hybridoma-derived humanized anti-DLL3 antibody (antibody, V domains shown) VH: QVQLVQSGAEVKKPGASVKVSCKASGYTFISYWITWVRQAPGQGLEWMGDIYPGSGSTTNYNEKFKSRVTMTRDTSTSTVYMELSSLRSEDTAVYYCARETTVGGAYAMDYWGQGTLVTVSS VL: EIVLTQSPATLSLSPGERATLSCRASQSINNNLHWYQQKPGQAPRLLIKYVSQSISGIPARFSGSGSGTDFTLTISSLEPEDFAVYYCQQTNSWPLTFGGGTKLEIK")
8.95

Now, please, on to the next binder.
(Q) Look at this binder and give its reported pEC50. 45E4D7 mouse hybridoma-derived anti-DLL3 chimeric antibody (antibody, V domains shown) VH: QVQLQQPGAELVKPGTSVKLSCKASGYTFTSHWITWVKQRPGQGLEWIGDIYPISGSTNNNEKFRNKATLTVDTSSSTAYMQLSSLTSEDSAVYFCAKIITVGGAYVMDYWGQGTSVTVSS VL: DIVLTQSPVTLSVTPGDSVSLSCRASQSVRNNLHWYQQKSHESPRLLIKYVSQSISGIPSRFSGSGSGTDFTLSINSVETEDFGVYFCQQSNSWPLTFGAGTKLELK
(A) 9.05

Data credit: patent US20240239878A1
